The reported numbers originate from patent US9526680B2.

- TESTED_ON: OR51L1 (Homo sapiens)
- Construct: expressed in transfected cells; host or cells: HEK293
- Sequence (Q8NGJ5 whole entry): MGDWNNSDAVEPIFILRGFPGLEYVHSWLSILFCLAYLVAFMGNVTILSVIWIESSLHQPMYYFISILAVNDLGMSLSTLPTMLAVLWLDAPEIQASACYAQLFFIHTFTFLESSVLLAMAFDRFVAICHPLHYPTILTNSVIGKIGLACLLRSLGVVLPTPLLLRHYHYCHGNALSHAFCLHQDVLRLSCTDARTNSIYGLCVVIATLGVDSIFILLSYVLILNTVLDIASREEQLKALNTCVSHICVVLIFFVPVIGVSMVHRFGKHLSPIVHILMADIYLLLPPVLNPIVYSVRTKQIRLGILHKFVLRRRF
- PROTOCOL_DETAILS: Luciferase reporter gene assay, OR51L1 expressed in HEK293 cells
- Format: cell-based
- PROTOCOL_CONDITIONS: response to hexanoic acid; test substance added together with hexanoic acid; HEK293
VALUE_KIND: Inhibition ratio of OR51L1 response

Worked examples follow.
Inhibition ratio of OR51L1 response for CC(C)c1cccc(C(C)CC=O)c1 (centres unmarked) [Florhydral, 3-(3-isopropylphenyl)-butyraldehyde] is 1 (Inhibition ratio: 50% or higher)

Inhibition ratio of OR51L1 response for CC1=CC(C)C(C=O)CC1 (centres unmarked) is 2 (Inhibition ratio: 20% to 50%)

Inhibition ratio of OR51L1 response for CC(C)(C)c1ccc(CCC=O)cc1 is 1 (Inhibition ratio: 50% or higher)

Inhibition ratio of OR51L1 response for CC(CC=O)CCCC(C)(C)O (centres unmarked) [Hydroxycitronellal, 3,7-dimethyl-7-hydroxyoctanal] is 2 (Inhibition ratio: 20% to 50%)

Here's the next entry for you.
Inhibition ratio of OR51L1 response for COC(C)(C)CCCC(C)CC=O (centres unmarked) is 1 (Inhibition ratio: 50% or higher)
